# Test system: HCC 2998
# Protocol Text: NCI tumour cell line growth inhibition, 48 h
The source made the active and inactive calls. Rule as the data show it: active = GI50 up to about 1.1 µM and inactive = higher.
Readout Kind: GI50

Example results:
>>> df
                                   molecule  system_tested  readout_kind      endpoint_result
0       O=C1OC2(CCCCC2)C(Oc2ccc(Cl)cc2)=C1F       HCC 2998          GI50   22.3 µM (inactive)
1  Cc1ccc(C(=O)Nc2ccc(CP(=O)(O)O)cc2)cc1NC(=O)Nc1cc(C(=O)Nc2ccc(CP(=O)(O)O)cc2)ccc1C       HCC 2998          GI50  > 100 µM (inactive)
2  COc1ccc2c(c1)CC[C@@H]1C2CC[C@]2(C)C(=C=CP(=O)(O)O)CCC12 (stereo not given in full)       HCC 2998          GI50  > 100 µM (inactive)
3                          NC(=O)COc1ccccc1       HCC 2998          GI50  > 100 µM (inactive)

Problem: I would be grateful if you could share the reported GI50 for `O=C(Cn1cc(-c2ccccc2)nn1)NC1CCCCC1` .
Result: 54.5 µM (inactive)

Problem: Cool, now `CCOC(=O)c1nnsc1NN=C(C)C`
Result: > 100 µM (inactive)

Problem: Cool, now `Cc1c(C(C)C)cc(OCCO)cc1C(C)C`
Result: 55.6 µM (inactive)

----------
# System: SR
# Protocol Text: NCI tumour cell line growth inhibition, 48 h
Calls of active or inactive are those of the source. Cut-off read from the data, not from the text of the source: active = GI50 up to about 1.1 µM and inactive = higher.
Allowed answers: active, inactive

As a guide, the following entries are already answered.
Compound	Assigned Label
CCCn1c2ccccc2c2ccc3c(c21)C(=O)C=CC3=O	active
c1ccc2c(c1)CCN1CCc3c([nH]c4ccccc34)C21 (configuration not stated)	inactive
COc1ccc(/C=C2\CCC(CN(C)C)C2=O)cc1OC (configuration not stated)	inactive
CC(=O)OCC1=CC2OC(=O)C3=COC(OC4OC(CO)C(O)C(O)C4O)C1C32 (configuration not stated)	inactive
Cc1ncc(COP(=O)(O)O)c(/C=C2\SC(=S)NC2=O)c1O	inactive

Problem: Per the assay record, what outcome was assigned to COC(=O)CCC(=O)NC1c2cccc3cccc(c23)Cn2c(=O)n(C)c(=O)n21 (configuration not stated) ?
Result: inactive

Problem: Cool, now `CC1=NN(c2ccccc2)C(=O)/C1=C/c1ccc(O)cc1`
Result: inactive

Problem: Cool, now CSc1nc(NC2OC(COC(C)=O)C(OC(C)=O)C(OC(C)=O)C2OC(C)=O)c2c(n1)OCC2=O (configuration not stated)
Result: inactive

Problem: Cool, now `COc1cc2c(cc1OCCCCCCCCCCN1C(=O)c3cccc4cccc(c34)C1=O)N=C[C@@H]1CCCN1C2=O`
Result: active

Problem: Cool, now `Cn1c(=O)c(C(=O)Nc2nc(C34CC5CC(CC(C5)C3)C4)cs2)c(O)c2ccccc21`
Result: inactive

Problem: Cool, now `O=c1cc(-c2ccccc2)oc2c(-c3cc(Cl)cc4c(=O)cc(-c5ccccc5)oc34)cc(Cl)cc12`
Result: inactive

Problem: Cool, now `CC1(C)N=C(/C(C#N)=[N+](/[O-])C(=O)c2ccccc2)C(C)(C)N1O`
Result: inactive

Problem: Cool, now `Cc1coc2c1C[C@@]1(C)[C@H](CCC[C@@H]1C)[C@H]2O`
Result: inactive

Problem: Cool, now `S=C(NN=C1NCCCCN1)Nc1ccccc1`
Result: inactive

Problem: Cool, now Cc1cn(C2CC(n3cc(Cn4ccc(=O)[nH]c4=O)nn3)C(CO)O2)c(=O)[nH]c1=O (configuration not stated)
Result: active

Problem: Cool, now `CC(C)C(O)(C(C)C)C(C)C`
Result: inactive

Problem: Cool, now `S=C(N/N=C/c1ccccn1)N1CCCCC1`
Result: active

Problem: Cool, now `C1=CCC[C@@H]2CN3CCCC/C=C\CCCC[C@H]4C[C@H](CN(CCCCCCCC1)C4)[C@H]2CC3`
Result: inactive

Problem: Cool, now CC1=NN(C(=O)CC(=O)Nc2ccccc2Cl)C(=O)C1/N=N/c1ccc(C(=O)O)cc1 (configuration not stated)
Result: inactive

Problem: Cool, now `CN(C)CCCNC(=O)c1c(O)c2ccccc2[nH]c1=O`
Result: inactive

Problem: Cool, now `O=S(=O)(O)c1ccc(/N=N/c2nc(C(F)(F)F)c(C(F)(F)F)[nH]2)cc1`
Result: inactive

Problem: Cool, now `CC(=O)Oc1ccc(CO)cc1OC(C)=O`
Result: inactive

Problem: Cool, now `Cc1nn(-c2cc(Cl)ccc2[N+](=O)[O-])c(C)c1Cl`
Result: inactive

Problem: Cool, now `N=C(N)N/N=C/c1cnn(C(=N)N)c1`
Result: inactive

Problem: Cool, now `OCCCCn1cc(Cn2ncc3c(NCc4ccccc4)ncnc32)nn1`
Result: inactive

----------
# System: Malme-3M
# Protocol Text: NCI tumour cell line growth inhibition, 48 h
The source made the active and inactive calls. No stated cut-off is given here; in the data, active = GI50 up to about 1.1 µM and inactive = higher.
Readout Kind: GI50

Example results:
Compound	GI50
Nc1nc(N)c(N=Nc2ccc([As](=O)(O)O)c(O)c2)c(N)n1	79.1 µM (inactive)
COc1cc2c(cc1C1=NC(C)(C)CO1)OCO2	> 100 µM (inactive)
CC(=O)O[C@H]1C(=O)[C@@]2(C)[C@H]([C@H](OC(=O)c3ccncc3)[C@]3(O)C[C@H](OC(=O)[C@H](O)[C@@H](NC(=O)c4ccccc4)c4ccccc4)C(C)=C1C3(C)C)[C@]1(OC(C)=O)CO[C@@H]1C[C@@H]2O	2.31 µM (inactive)
C(=N\c1ccc(-c2nc3ccccc3o2)cc1)/c1ccco1	82.2 µM (inactive)
O=c1[nH]ccc2c1ccn2C1CC(O)C(CO)O1 (configuration not stated)	> 100 µM (inactive)
O=c1cc(-c2ccccc2)oc2c(-c3cc(Cl)cc4c(=O)cc(-c5ccccc5)oc34)cc(Cl)cc12	27 µM (inactive)

Problem: I would be grateful if you could share the reported GI50 for O=C(O)C(Cc1cc(I)c(O)c(I)c1)C1CCCCC1 (configuration not stated) .
Result: 37.7 µM (inactive)

----------
# Test system: T47D
# Protocol Text: NCI tumour cell line growth inhibition, 48 h
Active and inactive are the calls of the source. Rule as the data show it: active = GI50 up to about 1.1 µM and inactive = higher.
Readout Kind: GI50

Example results:
Molecule	GI50
Oc1ccccc1/C=N/c1ccc(Oc2ccc(Cl)cc2)c(Cl)c1	5.97 µM (inactive)
CC(=O)Oc1ccc2c(c1)c1c(=O)oc(C)nc1n2Cc1ccccc1	33.5 µM (inactive)
CSc1c(C#N)c(S)n(-c2ccc(Cl)cc2)c(=O)c1C#N	47.5 µM (inactive)
CC(=O)O[C@H]1CC[C@H]2[C@@H]3CCC4=C(C(=O)C=CC4(C)OC(C)=O)[C@H]3CC[C@]12C (stereo partly drawn)	> 100 µM (inactive)

Problem: I would be grateful if you could share the reported GI50 for c1ccc2c(c1)CCN1CCc3c([nH]c4ccccc34)C21 (stereo not drawn) .
Result: 32.5 µM (inactive)

Problem: Cool, now `N#C/C(=C\c1cccc(Br)c1)c1nc2ccccc2c(=O)[nH]1`
Result: > 100 µM (inactive)

Problem: Cool, now `Cc1ccc(C(=O)Nc2ccc(CP(=O)(O)O)cc2)cc1NC(=O)Nc1cc(C(=O)Nc2ccc(CP(=O)(O)O)cc2)ccc1C`
Result: > 100 µM (inactive)

Problem: Cool, now C/C=C1/CN2CCC34C5=CC(=O)C(c6cc7c(cc6OC)N(C)C6=C(C(=O)OC)CC8(CC)CCCN9CCC67C98)=CC5=NC23CCC1C4C(=O)OC (stereo not drawn)
Result: 15.1 µM (inactive)

Problem: Cool, now CN1c2c(O)nc(N)nc2NCC1CCNc1ccc(C(=O)NC(CCC(=O)O)C(=O)O)cc1 (stereo not drawn)
Result: 1860 µM (inactive)

Problem: Cool, now `CNc1ccc(OC)cc1S(=O)(=O)c1ccccc1[N+](=O)[O-]`
Result: 49.8 µM (inactive)

----------
# Tested on: KM12
# Protocol Text: NCI tumour cell line growth inhibition, 48 h
Calls of active or inactive are those of the source. Cut-off read from the data, not from the text of the source: active = GI50 up to about 1.1 µM and inactive = higher.
Allowed answers: active, inactive

As a guide, the following entries are already answered.
Molecule	Assigned Label
CC(C)(Br)C(=O)N1CCN(C(c2ccccc2)c2ccccc2)CC1	inactive
NCC[Se][Se]CCN	inactive
CC1=CN(c2ccccc2)S2=C1c1sc3c(c1N2c1ccc(Br)cc1)CCCC3 (centres undefined)	inactive

Problem: Per the assay record, what outcome was assigned to `Cc1ccc(S(=O)(=O)NNC(=O)c2cc(C)c(C)cc2N)cc1` ?
Result: inactive

Problem: Cool, now `O=C(Cn1cc(-c2ccccc2)nn1)NC1CCCCC1`
Result: inactive

Problem: Cool, now `C[n+]1ccccc1/C1=c2\cc/c([nH]2)=C(\c2cccc[n+]2C)C2=N/C(=C(/c3cccc[n+]3C)C3C=CC(N3)/C(c3cccc[n+]3C)=C3/C=CC1=N3)C=C2`
Result: inactive

Problem: Cool, now OC12C3C4CC5C(C4[C@@H]1Br)C2[C@@](O)(c1c(F)c(F)c(F)c(F)c1F)C53 (some centres undefined)
Result: inactive

Problem: Cool, now `CCOC(=O)N1CCN(Cc2cc(=O)n3cc(C)ccc3n2)CC1`
Result: inactive

Problem: Cool, now `S=C(N/N=C/c1ccccn1)N1CCCCC1`
Result: active

Problem: Cool, now Cc1ccccc1OC(C)C(=O)NN1C(=O)CC(=O)N(c2ccc(Cl)cc2)C1=S (centres undefined)
Result: inactive

Problem: Cool, now `Clc1ccc(OCc2nnc(COc3ccc(OCc4nnc(COc5ccc(Cl)cc5Cl)o4)c(Cl)c3)o2)c(Cl)c1`
Result: inactive

Problem: Cool, now `CCNC(=O)OCc1c(COC(=O)NCC)c(-c2ccc(Cl)c(Cl)c2)n2c1CCC2`
Result: inactive

Problem: Cool, now C[C@@H](C1CC[C@H]2[C@@H]3[C@@H]4O[C@@H]4[C@@]4(O)CC=CC(=O)[C@]4(C)[C@H]3C[C@H](O)[C@]12C)[C@H]1C[C@]2(C)O[C@]2(C)C(=O)O1 (some centres undefined)
Result: inactive

Problem: Cool, now `CC(=O)Oc1ccc2c(c1)c1c(=O)oc(C)nc1n2Cc1ccccc1`
Result: inactive

Problem: Cool, now `CC(=O)Nc1ccc(-c2nnc(SCC(=O)Nc3ccc(Cl)cc3Cl)o2)cc1`
Result: inactive

Problem: Cool, now CC1(C)C(=O)OC(n2cc(F)c(=O)[nH]c2=O)C1=O (centres undefined)
Result: inactive

Data credit: ChEMBL document CHEMBL1201862
